Assay: NCI Yeast Anticancer Drug Screen. Data for the mec2-1 strain (AID 157)
Details: S. cerevisiae mec2-1 strain, at 50.0 µM
Method: Growth inhibition of yeast strains with defined genetic alterations is measured as a screen for potential anti-cancer activity. Selected strains with alterations in DNA damage repair or cell cycle control were exposed to compounds and growth inhibition was measured relative to vehicle treated controls. The strain used in this assay is mec2-1
Compounds without any hit were thinned out: in the full panel of roughly 79,000, 15% have a hit. The source made the active and inactive calls. No stated cut-off is given here; in the data, active means growth inhibition above about 70%; inactive means the rest.
Reply using exactly one outcome from active, inactive

> print(dat)
                                   molecule  label.value
1  O=C1C=CC(=O)N1c1ccccc1Cl (tested in a mixture with another compound)     inactive
2                    Cc1ccc([P+](=O)O)cc1Cl     inactive
3  OC1[C@@H]2[C@@H](O)CCCN2C[C@@H](O)[C@H]1O (stereo not given in full)     inactive
4  ClCCN(CCCl)c1ccc(/C=N/c2nc(-c3ccccc3)cs2)cc1     inactive
5  CC(C)c1cc2c(cc1O)C1(C)CCCC(C)(C)C1=CC2=O (stereo not given)     inactive
6  O=C(Cc1nc2ccccc2c(=O)n1-c1c(Cl)cccc1Cl)c1ccncc1     inactive

Q: I would be grateful if you could indicate the recorded call for CC1=C(Cl)C=CP(=O)(Oc2ccccc2)C1 (stereo not given) .
Ans: inactive

Q: I would be grateful if you could indicate the recorded call for CC(C)(Br)[N+](=O)[O-] .
Ans: inactive

Q: I would be grateful if you could indicate the recorded call for CCN1CCOC(O)(c2cc(Cl)cc(Cl)c2Cl)C1 (stereo not given) .
Ans: inactive
